- target_or_system: TBK1 (Homo sapiens)
- Sequence (Q9UHD2 1-729): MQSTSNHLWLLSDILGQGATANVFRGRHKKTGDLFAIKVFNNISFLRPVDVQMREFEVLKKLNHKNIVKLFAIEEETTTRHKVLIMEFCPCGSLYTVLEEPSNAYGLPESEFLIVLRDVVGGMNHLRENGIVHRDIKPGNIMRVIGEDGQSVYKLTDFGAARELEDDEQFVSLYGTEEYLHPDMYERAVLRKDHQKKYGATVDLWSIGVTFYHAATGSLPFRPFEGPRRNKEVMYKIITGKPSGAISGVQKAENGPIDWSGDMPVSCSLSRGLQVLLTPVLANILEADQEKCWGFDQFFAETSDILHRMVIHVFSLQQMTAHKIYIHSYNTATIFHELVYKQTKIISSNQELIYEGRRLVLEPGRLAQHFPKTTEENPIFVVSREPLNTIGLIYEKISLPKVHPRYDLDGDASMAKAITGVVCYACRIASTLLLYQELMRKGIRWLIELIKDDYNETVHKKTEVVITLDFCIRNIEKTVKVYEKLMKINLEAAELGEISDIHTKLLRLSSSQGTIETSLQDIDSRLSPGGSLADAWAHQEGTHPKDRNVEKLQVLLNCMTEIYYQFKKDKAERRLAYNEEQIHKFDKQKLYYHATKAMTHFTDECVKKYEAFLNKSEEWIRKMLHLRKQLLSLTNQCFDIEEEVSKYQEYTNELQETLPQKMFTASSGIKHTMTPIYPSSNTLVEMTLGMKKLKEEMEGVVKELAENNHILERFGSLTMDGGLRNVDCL
pIC50: −log10 of the molar value.
readout: pIC50

CS(=O)(=O)c1cccc(-c2cnc3[nH]cc(C4=CCN(C(=O)NC5CCCC5)CC4)c3c2)c1    7.64
COc1ccc(-c2cnc3[nH]cc(C4=CCN(C(=O)c5cccs5)CC4)c3c2)cc1F    6.34
CCS(=O)(=O)c1cccc(-c2cnc3[nH]cc(C4=CCN(C(=O)c5cccs5)CC4)c3c2)c1    7.21
CC1CC(c2c[nH]c3ncc(-c4ccc(CN5CCOCC5)s4)cc23)=CCN1C(=O)NC1CCCC1 (stereo not shown)    6.96
CC1CN(C(=O)c2cccs2)CC=C1c1c[nH]c2ncc(-c3ccc(S(C)(=O)=O)cc3)cc12 (stereo not shown)    7.11
CC(C)NC(=O)N1C2C=C(c3c[nH]c4ncc(-c5ccc(CN6CCOCC6)s5)cc34)CC1CCC2 (stereo not shown)    6.47
COc1ccc(-c2cnc3[nH]cc(C4=CC(C)N(C(=O)NC5CCCC5)CC4)c3c2)cc1OC (stereo not shown)    7.64
NS(=O)(=O)c1cccc(-c2cnc3[nH]cc(C4=CCN(C(=O)NC5CCCC5)CC4)c3c2)c1    7.51
CC(C)NC(=O)N1CC=C(c2c[nH]c3ncc(-c4ccc(OC5CCOCC5)cc4)cc23)CC1    7.54
COc1ccc(-c2cnc3[nH]cc(C4=CCN(C)CC4)c3c2)cc1OC    5.04
O=C(c1cccs1)N1CC=C(c2c[nH]c3ncc(-c4ccc5[nH]ncc5c4)cc23)CC1    7.24
CC1C=C(c2c[nH]c3ncc(-c4ccc(CN5CCN(C)CC5)cc4)cc23)CCN1C(=O)NC1CCC1 (stereo not shown)    7.55
COc1ccc(-c2cnc3[nH]cc(C4=CCN(C(=O)NN5CCCC5)CC4)c3c2)cc1OC [Example 85, 2,2,2-trifluoroacetate]    6.96
CCC(CC)OC(=O)N1CC=C(c2c[nH]c3ncccc23)CC1    5.52
O=C(c1cccs1)N1CC=C(c2c[nH]c3ncc(-c4ccc(S(=O)(=O)C5CC5)cc4)cc23)CC1    6.60
COc1ccc(-c2cnc3[nH]cc(C4=CCN(C(=O)OC(C)(C)C)CCC4)c3c2)cc1OC    5.31
